Test system: Ruminococcus gnavus DSM 108212
assay: fold change of 2-Phenylethylamine concentration vs plate DMSO controls (fold change (ratio)); higher = more amine produced, active = hit call of the paper (significant change in both replicates, either direction)
condition notes: incubation time: 27 h, anaerobic, 37 °C
Structures can show the parent of a compound that is named as a salt.
Kind request: treat 0.9 as inclusive, so fold change of 2-Phenylethylamine concentration at 0.9 or higher is yes, anything lower is no.

{"compound": "CC(C)(C)NC[C@H](O)c1ccc(O)c(CO)c1 [Levalbuterol hydrochloride] (20 µM)", "target desc": "Ruminococcus gnavus DSM 108212", "class name": "no"}
{"compound": "C#CCN(C)Cc1ccccc1 [Pargyline hydrochloride] (20 µM)", "target desc": "Ruminococcus gnavus DSM 108212", "class name": "yes"}
{"compound": "CC1(C)O[C@@H]2C[C@H]3[C@@H]4C[C@H](F)C5=CC(=O)C=C[C@]5(C)[C@H]4[C@@H](O)C[C@]3(C)[C@]2(C(=O)CO)O1 [Flunisolide] (20 µM)", "target desc": "Ruminococcus gnavus DSM 108212", "class name": "yes"}
{"compound": "C#CCN(C)CCCOc1ccc(Cl)cc1Cl [Clorgyline hydrochloride] (20 µM)", "target desc": "Ruminococcus gnavus DSM 108212", "class name": "yes"}
{"compound": "COc1c(N2CCNC(C)C2)c(F)cc2c(=O)c(C(=O)O)cn(C3CC3)c12 (configuration not stated) [Gatifloxacin] (20 µM)", "target desc": "Ruminococcus gnavus DSM 108212", "class name": "no"}

----------
Tested on: Ruminococcus gnavus DSM 108212
assay: fold change of Tryptamine concentration vs plate DMSO controls (fold change (ratio)); higher = more amine produced, active = hit call of the paper (significant change in both replicates, either direction)
condition notes: incubation time: 27 h, anaerobic, 37 °C
Structures can show the parent of a compound that is named as a salt.

{"compound": "O=C1CN2Cc3c(ccc(Cl)c3Cl)N=C2N1 [Anagrelide] (20 µM)", "fold change of Tryptamine concentration": 1.02}
{"compound": "CCCCCCCCc1c(CC)nc2ncnn2c1N (20 µM)", "fold change of Tryptamine concentration": 0.997}
{"compound": "OC[C@H]1O[C@@H](n2cnc3cncnc32)[C@H](O)[C@@H]1O [Nebularine] (20 µM)", "fold change of Tryptamine concentration": 0.943}
{"compound": "CCCCOc1cc(C(=O)OCCN(CC)CC)ccc1N [Benoxinate hydrochloride] (20 µM)", "fold change of Tryptamine concentration": 1.04}
{"compound": "OCCN(CCO)c1nc(N2CCCCC2)c2nc(N(CCO)CCO)nc(N3CCCCC3)c2n1 [Dipyridamole] (20 µM)", "fold change of Tryptamine concentration": 1}
{"compound": "C[C@@H]1O[C@@H](O[C@H]2[C@H](Oc3cc(O)c(C(=O)CCc4ccc(O)cc4)c(O)c3)O[C@H](CO)[C@@H](O)[C@@H]2O)[C@H](O)[C@H](O)[C@H]1O [Naringin Dihydrochalcone] (50 µM)", "fold change of Tryptamine concentration": 1}
{"compound": "CN(C)CCc1c[nH]c2ccc(C[C@H]3COC(=O)N3)cc12 [Zolmitriptan] (20 µM)", "fold change of Tryptamine concentration": 1.04}
{"compound": "N=C(N)NC(=N)NCCc1ccccc1 [Phenformin hydrochloride] (20 µM)", "fold change of Tryptamine concentration": 1.03}

----------
Property: fold change of Histamine concentration; scope: individual molecules
System: Klebsiella aerogenes DSM 30053
assay: fold change of Histamine concentration vs plate DMSO controls (fold change (ratio)); higher = more amine produced, active = hit call of the paper (significant change in both replicates, either direction)
condition notes: incubation time: 27 h, anaerobic, 37 °C
Where a name gives a salt, the structure may show the parent alone.
measured property: fold change of Histamine concentration

{"molecule": "CCCCNc1ccc(C(=O)OCCOCCOCCOCCOCCOCCOCCOCCOCCOC)cc1 [Benzonatate] (20 µM)", "measured property": "fold change of Histamine concentration", "result number": 0.929}
{"molecule": "C[C@H]1C[C@H]2[C@@H]3CCC4=CC(=O)C=C[C@]4(C)[C@@]3(F)[C@@H](O)C[C@]2(C)[C@@]1(O)C(=O)CO [Betamethasone] (20 µM)", "measured property": "fold change of Histamine concentration", "result number": 0.976}
{"molecule": "CC(=O)[C@@]12O[C@](C)(c3ccccc3)O[C@@H]1C[C@H]1[C@@H]3CCC4=CC(=O)CC[C@]4(C)[C@H]3CC[C@@]12C [Algestone acetophenide] (20 µM)", "measured property": "fold change of Histamine concentration", "result number": 1.03}
{"molecule": "Nc1nc(=O)n([C@@H]2CS[C@H](CO)O2)cc1F [(-) Emtricitabine] (20 µM)", "measured property": "fold change of Histamine concentration", "result number": 1.01}
{"molecule": "CO/N=C(\\C(=O)N[C@@H]1C(=O)N2C(C(=O)OC(C)OC(C)=O)=C(COC(N)=O)CS[C@H]12)c1ccco1 (stereo not given in full) [Cefuroxime axetil] (20 µM)", "measured property": "fold change of Histamine concentration", "result number": 0.905}
{"molecule": "C[C@]12CC[C@@H]3c4ccc(O)cc4C[C@@H](CCCCCCCCC[S+]([O-])CCCC(F)(F)C(F)(F)F)[C@H]3[C@@H]1CC[C@@H]2O (stereo not given in full) [Fulvestrant] (20 µM)", "measured property": "fold change of Histamine concentration", "result number": 0.97}
{"molecule": "CCCSS/C(CCO)=C(/C)N(C=O)Cc1cnc(C)nc1N [Prosultiamine] (20 µM)", "measured property": "fold change of Histamine concentration", "result number": 0.951}
{"molecule": "CN(C)C/C=C(/c1ccc(Br)cc1)c1cccnc1 [Zimelidine dihydrochloride monohydrate] (20 µM)", "measured property": "fold change of Histamine concentration", "result number": 1.01}
{"molecule": "O=C(Oc1ccccc1)n1c(C(F)(F)F)nc2cc(Cl)c(Cl)cc21 (20 µM)", "measured property": "fold change of Histamine concentration", "result number": 1.39}
{"molecule": "N#Cc1ccc(C(c2ccc(C#N)cc2)n2cncn2)cc1 [Letrozole] (20 µM)", "measured property": "fold change of Histamine concentration", "result number": 1.07}
{"molecule": "C[C@H]1[C@H](OC(=O)CCC(=O)O)O[C@@H]2O[C@@]3(C)CC[C@H]4[C@H](C)CC[C@@H]1[C@@]24OO3 [Artesunate] (20 µM)", "measured property": "fold change of Histamine concentration", "result number": 1.04}
{"molecule": "COC(=O)Nc1nc2cc(C(=O)c3ccc(F)cc3)ccc2[nH]1 [Flubendazol] (20 µM)", "measured property": "fold change of Histamine concentration", "result number": 0.979}
{"molecule": "CN1[C@@H]2CC[C@H]1CC(OC(=O)C(O)c1ccccc1)C2 (mixture of isomers) [(R,S) Homatropine hydrobromide] (20 µM)", "measured property": "fold change of Histamine concentration", "result number": 0.867}
{"molecule": "Cc1nc(C)c(Cl)c(O)c1Cl [Clopidol] (20 µM)", "measured property": "fold change of Histamine concentration", "result number": 1}
{"molecule": "COC(=O)[C@H](c1ccccc1Cl)N1CCc2sccc2C1 [Clopidogrel] (20 µM)", "measured property": "fold change of Histamine concentration", "result number": 1.06}

----------
Test system: Clostridium sporogenes DSM 1664
assay: fold change of Tryptamine concentration vs plate DMSO controls (fold change (ratio)); higher = more amine produced, active = hit call of the paper (significant change in both replicates, either direction)
condition notes: incubation time: 27 h, anaerobic, 37 °C
Where a name gives a salt, the structure may show the parent alone.

{"compound": "O=c1[nH]cc(F)c(=O)[nH]1 [5-fluorouracil] (20 µM)", "fold change of Tryptamine concentration": 0.767}
{"compound": "NC12CC3CC(CC(C3)C1)C2 [Adamantamine fumarate] (20 µM)", "fold change of Tryptamine concentration": 0.971}
{"compound": "Oc1ccccc1O [Catechol] (20 µM)", "fold change of Tryptamine concentration": 0.972}
{"compound": "Cn1ccnc1S [Methimazole] (20 µM)", "fold change of Tryptamine concentration": 0.989}
{"compound": "CN[C@@H]1CCc2[nH]c3ccc(C(N)=O)cc3c2C1 [Frovatriptan succinate] (20 µM)", "fold change of Tryptamine concentration": 0.957}
